Cited source: patent US20230086702A1

target-entity: DLK (Homo sapiens, UniProt Q12852)
Construct: 10 nM DLK, catalytic domain, Carna Biosiences; purchased Carna Biosciences ('Carna Biosiences' [sic])
Sequence (Q12852 125-366 limits assumed): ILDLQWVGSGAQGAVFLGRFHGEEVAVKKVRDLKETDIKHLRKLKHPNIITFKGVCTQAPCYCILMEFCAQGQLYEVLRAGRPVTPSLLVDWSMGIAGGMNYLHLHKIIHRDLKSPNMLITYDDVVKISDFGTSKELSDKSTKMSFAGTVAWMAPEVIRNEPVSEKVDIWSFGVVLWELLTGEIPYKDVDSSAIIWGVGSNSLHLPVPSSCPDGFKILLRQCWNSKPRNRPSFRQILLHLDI
test: DLK biochemical assay (TR-FRET, MKK7 phosphorylation)
Description: DLK assay is a biochemical assay format designed to screen for inhibitors of DLK. Enzymatic activity of DLK is measured by monitoring phosphorylation of the physiological substrate MKK7 (MAP2K7, Dual specificity mitogen-activated protein kinase kinase 7). Phosphorylation is detected by a TR-FRET system whereby His-tagged MKK7 is labeled by a XL665-labeled anti-His antibody (FRET acceptor, emission 665 nm). […]
reported-endpoint: IC50 (nM)
One number for each entry, in nM.

Recorded IC50 for CN(C)c1cccc(-c2cc(-c3cnn(C(c4ccc(C(F)(F)F)nc4)C4CCOCC4)c3)cn3nc(N)nc23)c1 (single isomer, unassigned) [II-23] with DLK (Homo sapiens, UniProt Q12852), please?
4.5

Recorded IC50 for CC(C)(O)c1cccc(-c2cc(-c3cnn(C(c4ccc(C(F)(F)F)nc4)C4CCOCC4)c3)cn3nc(N)nc23)c1 (single isomer, unassigned) [II-12] with DLK (Homo sapiens, UniProt Q12852), please?
0.6

Recorded IC50 for CCC(c1ccc(C(F)(F)F)cc1)n1cc(-c2cc(-c3cnn(C4CCCC4)c3)n3nc(N)nc3c2)cn1 (single isomer, unassigned) [II-133] with DLK (Homo sapiens, UniProt Q12852), please?
45

Recorded IC50 for CC(C)C(c1ccc(C(F)(F)F)nc1)n1cc(-c2cc(-c3ccc(C4CC4)nc3)c3nc(N)nn3c2)cn1 (racemic) [II-43] with DLK (Homo sapiens, UniProt Q12852), please?
4.2

Recorded IC50 for CCC(c1ccc(C(F)(F)F)nc1)n1cc(-c2cc(-c3cccc(C(C)(C)O)c3)c3nc(N)nn3c2)cn1 (single isomer, unassigned) [II-9] with DLK (Homo sapiens, UniProt Q12852), please?
1

Would you mind giving IC50 for every compound in the list below?
1. CC[C@@H](c1ccc(F)cc1)n1cc(-c2cc(-c3cnn(CC(F)(F)F)c3)c3nc(N)nn3c2)cn1
2. CC(C)C(c1ccc(C(F)F)nc1)n1cc(-c2cc(-c3ccc(C4CC4)nc3)n3nc(N)nc3c2)cn1 (single isomer, unassigned) [II-54]
3. Nc1nc2c(-c3cccc(S(=O)(=O)C(F)(F)F)c3)cc(-c3cnn(C(c4ccc(C(F)(F)F)nc4)C4CCOCC4)c3)cn2n1 (racemic) [II-19]
4. CCC(c1ccc(C(F)F)nc1)n1cc(-c2cc(-c3ccc(C4CC4)nc3)n3nc(N)nc3c2)cn1 (single isomer, unassigned) [II-68]

1. 14
2. 4
3. 17
4. 36
